- System: Sigma non-opioid intracellular receptor 1 (Homo sapiens)
- Sequence (Q99720 whole entry): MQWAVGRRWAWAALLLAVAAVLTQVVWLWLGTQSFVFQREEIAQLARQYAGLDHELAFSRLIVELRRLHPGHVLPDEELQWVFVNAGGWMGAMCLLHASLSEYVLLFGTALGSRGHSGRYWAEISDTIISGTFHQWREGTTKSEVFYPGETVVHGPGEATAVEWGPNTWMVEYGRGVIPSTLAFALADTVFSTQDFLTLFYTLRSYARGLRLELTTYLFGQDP
- Protocol Summary: GPCRScan assay: inhibition of Sigma 1
Reported pKi values for a set of compounds
// pKi: -log10(molar conc.)

Input line: What value of measured pKi is listed for COc1ccc2c(c1)O[C@H](c1ccc(OC)c(OC)c1)C[C@@H]2NC(=O)C1(c2ccc3c(c2)OC(F)(F)O3)CC1 [A-1596584] ?
Output line: 5.56

Input line: What value of measured pKi is listed for COc1ccc2c(c1)O[C@@H](c1ccc(OC)c(OC)c1)C[C@H]2NC(=O)C1(c2ccc3c(c2)OC(F)(F)O3)CC1 [A-1596586] ?
Output line: 6.50
